B1: HDV Ribozyme (parent)
chain: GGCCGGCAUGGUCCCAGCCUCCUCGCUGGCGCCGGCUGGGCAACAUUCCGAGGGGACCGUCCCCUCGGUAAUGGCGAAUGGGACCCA

Variants of: B1
test: self-cleavage, relative activity (ratio to wild type); higher = more cleavage; co-transcriptional
Entry flag: Criterion met if self-cleavage reaches 0.9; Criterion not met if it does not.

C57G U65C : Criterion met
C24U U60G : Criterion not met
C7U C48U : Criterion met
C49U C66A : Criterion met
U20G G50C : Criterion not met
U12C G73A : Criterion not met
C26A C41A : Criterion met
U9G C32U : Criterion not met
G82U C85U : Criterion not met
G34A G35A : Criterion not met
C7A G39C : Criterion not met
U20G G28C : Criterion not met
G50A C75U : Criterion not met
U60G C85U : Criterion met
G40C C49U : Criterion not met
C4G U79G : Criterion not met
G31C G39A : Criterion not met
G40A C63A : Criterion not met
U23A U27A : Criterion not met
G54C C61U : Criterion met
A16G U23C : Criterion met

Data provenance is the RNAGym collection of RNA variant scans (doi:10.7554/elife.80360).
